Parameter 'readout' = log10 IC50; parameter 'system' = C619A GlcB (malate synthase) (Mycobacterium tuberculosis, UniProt P9WK17, C619A).
Each number you see is log10 of IC50, and the unit inside the log is nM.

Could you share what log10 IC50 was measured for "O=C(O)C(=O)CC(=O)c1ccccc1F" , tested on C619A GlcB (malate synthase) (Mycobacterium tuberculosis, UniProt P9WK17, C619A)?
2.38

Could you share what log10 IC50 was measured for "Cc1ccc(C(=O)CC(=O)C(=O)O)cc1" , tested on C619A GlcB (malate synthase) (Mycobacterium tuberculosis, UniProt P9WK17, C619A)?
3.78

Could you share what log10 IC50 was measured for "O=C(O)C(=O)CC(=O)c1cccc(Cl)c1" , tested on C619A GlcB (malate synthase) (Mycobacterium tuberculosis, UniProt P9WK17, C619A)?
2.23

Could you share what log10 IC50 was measured for "O=C(O)C(=O)CC(=O)c1ccccc1Cl" , tested on C619A GlcB (malate synthase) (Mycobacterium tuberculosis, UniProt P9WK17, C619A)?
2.70

Could you share what log10 IC50 was measured for "O=C(O)C(=O)CC(=O)c1ccc(Br)cc1" , tested on C619A GlcB (malate synthase) (Mycobacterium tuberculosis, UniProt P9WK17, C619A)?
3.76

Data provenance is paper PMC3530165.
